- Measured On: Lyn(h) (Homo sapiens, UniProt P07948)
- Sequence (P07948 whole entry): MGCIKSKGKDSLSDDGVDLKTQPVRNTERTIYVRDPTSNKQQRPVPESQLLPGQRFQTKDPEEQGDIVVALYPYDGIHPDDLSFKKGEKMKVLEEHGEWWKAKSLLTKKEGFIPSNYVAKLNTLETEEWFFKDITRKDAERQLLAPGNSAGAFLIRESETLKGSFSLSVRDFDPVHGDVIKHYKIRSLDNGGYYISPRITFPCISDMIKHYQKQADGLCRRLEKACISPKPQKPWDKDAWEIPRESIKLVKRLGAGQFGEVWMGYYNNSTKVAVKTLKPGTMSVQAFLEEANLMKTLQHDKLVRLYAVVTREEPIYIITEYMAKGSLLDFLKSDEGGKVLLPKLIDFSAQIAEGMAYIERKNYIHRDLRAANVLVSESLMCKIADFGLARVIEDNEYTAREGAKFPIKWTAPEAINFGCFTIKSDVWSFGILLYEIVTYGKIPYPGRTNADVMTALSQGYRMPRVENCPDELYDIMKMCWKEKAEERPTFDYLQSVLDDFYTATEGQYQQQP
- Assay Comment: Kinase selectivity panel: Lyn(h)
- Type: biochemical
pIC50: −log10 of the molar value.

Structure As Smiles: C#Cc1cccc(Nc2ncnc3cc(OC)c(NC(=O)N4C[C@H]5CCN(C)[C@H]5C4)cc23)c1
Measured On: Lyn(h) (Homo sapiens, UniProt P07948)
pIC50: 6.30

* * *

- Measured On: Lck(h) (Homo sapiens)
- Sequence (P06239 whole entry): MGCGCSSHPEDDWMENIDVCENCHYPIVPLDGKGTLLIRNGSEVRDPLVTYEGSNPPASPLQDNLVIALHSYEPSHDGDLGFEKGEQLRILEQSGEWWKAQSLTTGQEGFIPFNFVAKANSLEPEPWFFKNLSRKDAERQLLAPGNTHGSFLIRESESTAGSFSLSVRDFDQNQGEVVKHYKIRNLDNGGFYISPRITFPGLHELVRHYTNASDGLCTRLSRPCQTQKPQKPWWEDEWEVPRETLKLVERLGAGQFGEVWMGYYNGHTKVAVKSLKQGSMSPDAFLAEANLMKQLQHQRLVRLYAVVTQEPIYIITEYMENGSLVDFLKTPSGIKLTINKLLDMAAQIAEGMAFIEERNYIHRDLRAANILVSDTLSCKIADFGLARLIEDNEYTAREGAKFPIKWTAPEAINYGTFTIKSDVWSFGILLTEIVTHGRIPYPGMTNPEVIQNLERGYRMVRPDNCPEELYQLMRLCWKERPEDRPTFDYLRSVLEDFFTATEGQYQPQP

Compound: C#Cc1cccc(Nc2ncnc3cc(OC)c(NC(=O)N4C[C@H]5CCN(C)[C@H]5C4)cc23)c1 [Theliatinib]
Measured On: Lck(h) (Homo sapiens)
Units Of Measure: nM
IC50: 176

* * *

- Measured On: ErbB4(h) (Homo sapiens)
- Sequence (Q15303 26-1308): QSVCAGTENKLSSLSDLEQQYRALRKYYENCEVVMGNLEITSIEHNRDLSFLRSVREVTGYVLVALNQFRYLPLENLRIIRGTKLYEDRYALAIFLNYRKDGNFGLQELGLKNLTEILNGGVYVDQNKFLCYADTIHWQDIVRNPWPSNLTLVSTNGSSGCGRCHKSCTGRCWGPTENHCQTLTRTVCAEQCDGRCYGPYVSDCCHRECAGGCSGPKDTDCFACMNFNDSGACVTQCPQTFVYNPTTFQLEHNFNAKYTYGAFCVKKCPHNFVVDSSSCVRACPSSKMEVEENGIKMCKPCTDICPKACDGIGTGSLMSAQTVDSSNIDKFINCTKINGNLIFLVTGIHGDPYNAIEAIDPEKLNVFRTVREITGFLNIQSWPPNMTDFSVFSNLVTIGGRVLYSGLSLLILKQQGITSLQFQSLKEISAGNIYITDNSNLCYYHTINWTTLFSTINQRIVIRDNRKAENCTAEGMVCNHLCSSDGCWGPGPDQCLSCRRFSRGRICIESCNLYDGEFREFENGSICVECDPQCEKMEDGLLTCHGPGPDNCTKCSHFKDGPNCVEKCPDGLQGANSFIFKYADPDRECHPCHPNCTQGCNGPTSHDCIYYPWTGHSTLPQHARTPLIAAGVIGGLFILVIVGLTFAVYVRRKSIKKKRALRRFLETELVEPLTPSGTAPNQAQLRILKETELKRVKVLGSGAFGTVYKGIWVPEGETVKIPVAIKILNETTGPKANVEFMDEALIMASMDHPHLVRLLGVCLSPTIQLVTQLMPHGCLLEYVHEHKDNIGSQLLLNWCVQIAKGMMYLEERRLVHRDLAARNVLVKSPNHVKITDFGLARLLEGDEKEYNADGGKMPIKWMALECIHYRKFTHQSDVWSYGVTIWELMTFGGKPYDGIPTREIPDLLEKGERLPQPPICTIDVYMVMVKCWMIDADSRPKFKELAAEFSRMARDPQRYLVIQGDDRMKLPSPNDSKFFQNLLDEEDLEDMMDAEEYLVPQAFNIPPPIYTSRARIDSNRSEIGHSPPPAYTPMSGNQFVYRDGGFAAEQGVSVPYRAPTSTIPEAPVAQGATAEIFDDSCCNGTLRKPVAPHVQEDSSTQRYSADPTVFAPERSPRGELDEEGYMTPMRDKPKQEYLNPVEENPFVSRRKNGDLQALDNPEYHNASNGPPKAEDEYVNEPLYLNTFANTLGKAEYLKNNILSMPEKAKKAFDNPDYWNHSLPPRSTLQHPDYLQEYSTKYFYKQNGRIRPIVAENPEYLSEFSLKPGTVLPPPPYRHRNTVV

Molecule: C#Cc1cccc(Nc2ncnc3cc(OC)c(NC(=O)N4C[C@H]5CCN(C)[C@H]5C4)cc23)c1 [Theliatinib]
IC50 [nM]: 705

* * *

- Measured On: UniProtKB P00533
pIC50: −log10 of the molar value.

Structure As Smiles: C#Cc1cccc(Nc2ncnc3cc(OC)c(NC(=O)N4C[C@H]5CCN(C)[C@H]5C4)cc23)c1
pIC50: 8.52

* * *

- Measured On: EGFR(T790M,L858R)(h) (Homo sapiens, UniProt P00533, L858R/T790M)
- Sequence (P00533 25-1210 T790M/L858R): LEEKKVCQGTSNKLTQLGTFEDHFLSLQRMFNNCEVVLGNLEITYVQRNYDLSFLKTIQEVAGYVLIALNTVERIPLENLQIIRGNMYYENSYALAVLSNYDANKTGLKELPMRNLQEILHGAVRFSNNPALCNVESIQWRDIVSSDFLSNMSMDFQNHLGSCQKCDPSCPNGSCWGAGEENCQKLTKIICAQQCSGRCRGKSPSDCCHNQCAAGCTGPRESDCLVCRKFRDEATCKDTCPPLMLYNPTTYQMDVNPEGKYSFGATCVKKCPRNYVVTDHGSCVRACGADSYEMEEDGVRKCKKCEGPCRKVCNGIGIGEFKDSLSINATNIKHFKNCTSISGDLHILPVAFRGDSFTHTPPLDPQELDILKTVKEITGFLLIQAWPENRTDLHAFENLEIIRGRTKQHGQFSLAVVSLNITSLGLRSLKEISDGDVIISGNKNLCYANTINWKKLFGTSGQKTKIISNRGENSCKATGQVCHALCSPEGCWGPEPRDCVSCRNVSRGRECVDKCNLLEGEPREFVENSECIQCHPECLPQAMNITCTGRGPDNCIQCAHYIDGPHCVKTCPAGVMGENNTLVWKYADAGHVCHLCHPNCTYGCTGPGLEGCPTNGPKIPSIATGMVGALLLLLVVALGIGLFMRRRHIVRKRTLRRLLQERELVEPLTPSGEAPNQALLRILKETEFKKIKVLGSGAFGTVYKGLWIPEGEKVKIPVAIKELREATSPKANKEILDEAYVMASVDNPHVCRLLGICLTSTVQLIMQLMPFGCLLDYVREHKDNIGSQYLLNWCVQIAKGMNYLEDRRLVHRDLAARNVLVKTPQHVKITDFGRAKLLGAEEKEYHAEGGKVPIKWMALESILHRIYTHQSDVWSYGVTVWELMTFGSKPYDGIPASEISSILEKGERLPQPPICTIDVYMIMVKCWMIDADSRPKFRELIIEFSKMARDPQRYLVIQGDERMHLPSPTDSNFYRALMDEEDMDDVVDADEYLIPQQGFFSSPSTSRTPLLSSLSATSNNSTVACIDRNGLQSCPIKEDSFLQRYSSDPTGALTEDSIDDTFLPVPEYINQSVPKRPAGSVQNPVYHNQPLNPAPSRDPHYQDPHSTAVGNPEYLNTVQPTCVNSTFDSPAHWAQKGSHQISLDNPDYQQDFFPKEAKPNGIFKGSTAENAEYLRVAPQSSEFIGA
- Assay Comment: Kinase selectivity panel: EGFR(T790M,L858R)(h)
pIC50: −log10 of the molar value.

Structure As Smiles: C#Cc1cccc(Nc2ncnc3cc(OC)c(NC(=O)N4C[C@H]5CCN(C)[C@H]5C4)cc23)c1
pIC50: 7.66
